- Tested on: DLD-1
- run description: NCI tumour cell line growth inhibition, 48 h
Activity calls are given as the source filed them. Cut-off read from the data, not from the text of the source: active = GI50 up to about 1.1 µM and inactive = higher.
measurement kind: GI50

// below: answered compounds
compound: CCOC(=O)c1c(NNc2ccccc2)nc2ccccc2c1-c1ccccc1
GI50: 25.9 µM (inactive)

compound: Nc1ccc(-c2cc(C(=O)Nc3nccs3)nc(S)n2)cc1
GI50: > 100 µM (inactive)

compound: COc1ccc(C(=O)Cc2ccc(Br)cc2)cc1OC
GI50: > 100 µM (inactive)

compound: Fc1ccc(C2SCc3nc4ccccc4n32)c(F)c1 (stereo unspecified)
GI50: 67.6 µM (inactive)

compound: O=C1CNC(=O)N1
GI50: > 1120 µM (inactive)

Query: # assay system DLD-1: give GI50 of O=C1CCCCCCCCCCC1CN1CCCCC1 (stereo unspecified)
Reply: 54.8 µM (inactive)

Query: # assay system DLD-1: give GI50 of CC(Oc1ccc(OCC2CCCCC2)cc1)C(=O)NCc1ccco1 (stereo unspecified)
Reply: 34.9 µM (inactive)

Query: # assay system DLD-1: give GI50 of `NC1=NS(=O)(=O)Nc2nc(-c3ccccc3)c(-c3ccccc3)nc21`
Reply: > 100 µM (inactive)

Query: # assay system DLD-1: give GI50 of `CNCCNc1ccc2c3c(nn2CCNCCO)-c2c(O)ccc(O)c2C(=O)c13`
Reply: 1.26 µM (inactive)

Query: # assay system DLD-1: give GI50 of Cc1cc(O)c(C(=O)O)c2c1C(=O)c1c(O)c(OCC(O)C(O)C(O)C(O)CO)c(O)c(O)c1C2=O.NCCNCCO (stereo unspecified)
Reply: > 100 µM (inactive)

Query: # assay system DLD-1: give GI50 of `COC(=O)/C(C#N)=C1\CCc2ccccc21`
Reply: > 100 µM (inactive)

* * *

- Test system: U-251
- run description: NCI tumour cell line growth inhibition, 48 h
Active and inactive are the calls of the source. Rule as the data show it: active = GI50 up to about 1.1 µM and inactive = higher.
Pick from 1.0 = active, 0.0 = inactive when you respond.

compound: COC(=O)/C=C(\C)CC(O)/C=C(\C)CCC=C(C)C (stereo not drawn)
assigned label: 0.0
//
compound: CCOC(=O)NC(=O)c1cn(CCN(CCO)C(=O)NCCCCCCNC(=O)N(CCO)CCn2cc(C(=O)NC(=O)OCC)c(=O)[nH]c2=O)c(=O)[nH]c1=O
assigned label: 0.0
//
compound: NC(Cc1ccccc1)C(=O)N[C@H]1c2ccsc2/C(=N/O)[C@H]1O (stereo partly drawn)
assigned label: 0.0
//
compound: OC[C@H]1CC(c2nn[nH]n2)[C@H](O)[C@@H]1O (stereo partly drawn)
assigned label: 0.0

Query: Called result for `CC1(C)[C@@H]2CC[C@@]1(C)[C@@H]1O[C@@H](O[C@@H](CN)c3cc(Cl)c(OCc4ccccc4)c(OCc4ccccc4)c3)C[C@H]21`
Reply: 1.0

Query: Called result for `O=C(Cc1nc2ccc(C(=O)c3ccccc3)cc2nc1O)C(=O)Nc1ccc(C(F)(F)F)cc1[N+](=O)[O-]`
Reply: 0.0

Query: Called result for CC1C(=O)OC2CC[N+]3([O-])CC=C(COC(=O)C(C)(O)C1(C)O)C23 (stereo not drawn)
Reply: 0.0

Query: Called result for CCOC(=O)c1c(-c2ccc(Cl)cc2)c(C#N)c(=S)n(C2OC(CO)C(O)C(O)C2O)c1-c1ccccc1 (stereo not drawn)
Reply: 0.0
